Target: Dipeptidyl aminopeptidase 1 (Plasmodium falciparum)
Assay: DPAP1 inhibtion was measured using DPAP1-specific fluorogenic assay. IC50 DPAP1 were determined after 30 min incubation of parasite lysates with 5 nM to 100 mM inhibitor. ki values were obtained by fitting the data to Equation 1.
pIC50: −log10 of the molar value.
Threshold rule: pIC50 greater than or equal to 6 is yes (1); below that, no (0).

- Molecule: "CCCCC(C(=O)COc1c(F)c(F)cc(F)c1F)n1cc([C@](C)(N)C2CCCCC2)nn1 (some centres not stated) [ML4046B]"
  Label value: "no (0)"

Query: Could you verify whether the entry CCCCC(C(=O)COc1c(F)c(F)cc(F)c1F)n1cc(C2(N)CCNCC2)nn1 (configuration not stated) [ML4162] shows pIC50 of no less than 6?
Reply: no (0)

Query: Could you verify whether the entry CCCCC(C(=O)COc1c(F)c(F)cc(F)c1F)n1cc(C2(N)CCCCC2)nn1 (configuration not stated) [HN3019] shows pIC50 of no less than 6?
Reply: yes (1)

Query: Could you verify whether the entry CCCCC(C(=O)COc1c(F)c(F)cc(F)c1F)n1cc(C(C)(N)CCC)nn1 (configuration not stated) [ML4123] shows pIC50 of no less than 6?
Reply: yes (1)

Query: Could you verify whether the entry CCCCC(C(=O)COC(=O)c1c(C)cccc1C)n1cc(C2(N)CCCCC2)nn1 (configuration not stated) [ML4091] shows pIC50 of no less than 6?
Reply: no (0)

Query: Could you verify whether the entry CCCCC(C(=O)COc1c(F)c(F)cc(F)c1F)n1cc(C(CCC)(CCC)NC)nn1 (configuration not stated) [ML5004] shows pIC50 of no less than 6?
Reply: no (0)

Query: Could you verify whether the entry CCCCC(C(=O)COc1c(F)c(F)cc(F)c1F)n1cc(C(C)(N)Cc2ccccc2)nn1 (configuration not stated) [ML4053] shows pIC50 of no less than 6?
Reply: no (0)

Query: Could you verify whether the entry CCCCC(C(=O)COc1c(F)c(F)cc(F)c1F)n1cc(C2(N)CCN(C(N)=O)CC2)nn1 (configuration not stated) [ML4154] shows pIC50 of no less than 6?
Reply: no (0)

Query: Could you verify whether the entry CCCCC(C#N)n1cc(C2(N)CCCCC2)nn1 (configuration not stated) [ML4101] shows pIC50 of no less than 6?
Reply: no (0)

Query: Could you verify whether the entry CCCCC(C(=O)COc1c(F)c(F)cc(F)c1F)n1cc(C(N)(CC)CC)nn1 (configuration not stated) [ML4161] shows pIC50 of no less than 6?
Reply: yes (1)

Query: Could you verify whether the entry CCCCC(C(=O)COc1c(F)c(F)cc(F)c1F)n1cc(C2(C)CCCN2)nn1 (configuration not stated) [ML6076] shows pIC50 of no less than 6?
Reply: yes (1)

Query: Could you verify whether the entry CCCCC(C(=O)COc1c(F)c(F)cc(F)c1F)n1cc(C2(N)CCN(C(C)=O)CC2)nn1 (configuration not stated) [ML4163] shows pIC50 of no less than 6?
Reply: no (0)

Query: Could you verify whether the entry CCCCC(C(=O)COc1c(F)c(F)cc(F)c1F)n1cc(C(N)Cc2ccccc2)nn1 (configuration not stated) [ML4068] shows pIC50 of no less than 6?
Reply: no (0)
